# Test system: Streptococcus equinus
# MEASUREMENT NOTES: Antibacterial activity against Streptococcus bovis ATCC 33317 by agar dilution method
# Type: functional
Binary label based on MIC with cut-off 60 µg/mL: below gives YES, not below gives NO.

compound="CCN[C@@H]1C[C@H](N)[C@@H](O[C@H]2OC(CN)=CC[C@H]2N)[C@H](O)[C@H]1O[C@H]1OC[C@](C)(O)[C@H](NC)[C@H]1O [NETILMICIN]" class=YES
compound="CC[C@H]1OC(=O)[C@H](C)[C@@H](O[C@H]2C[C@@](C)(OC)[C@@H](O)[C@H](C)O2)[C@H](C)[C@@H](O[C@@H]2O[C@H](C)C[C@H](N(C)C)[C@H]2O)[C@](C)(O)C[C@@H](C)C(=O)[C@H](C)[C@@H](O)[C@]1(C)O [ERYTHROMYCIN]" class=YES
compound="NCC[C@H](O)C(=O)N[C@@H]1C[C@H](N)[C@@H](O[C@H]2O[C@H](CN)[C@@H](O)[C@H](O)[C@H]2O)[C@H](O)[C@H]1O[C@H]1O[C@H](CO)[C@@H](O)[C@H](N)[C@H]1O [AMIKACIN]" class=NO
compound="CN(C)[C@@H]1C(O)=C(C(N)=O)C(=O)[C@@]2(O)C(O)=C3C(=O)c4c(O)cccc4[C@@](C)(O)[C@H]3C[C@@H]12 [TETRACYCLINE]" class=YES
compound="CCC[C@@H]1C[C@@H](C(=O)N[C@@H]([C@H]2O[C@H](SC)[C@H](O)[C@@H](O)[C@H]2O)[C@H](C)Cl)N(C)C1 [CLINDAMYCIN]" class=YES
compound="NC[C@H]1O[C@H](O[C@H]2[C@H](O)[C@@H](O[C@H]3O[C@H](CO)[C@@H](O)[C@H](N)[C@H]3O)[C@H](N)C[C@@H]2N)[C@H](O)[C@@H](O)[C@@H]1O [KANAMYCIN]" class=NO
compound="CN[C@@H]1[C@H](O[C@H]2[C@H](O[C@H]3[C@H](O)[C@@H](O)[C@H](N=C(N)N)[C@@H](O)[C@@H]3N=C(N)N)O[C@@H](C)[C@]2(O)C=O)O[C@@H](CO)[C@H](O)[C@H]1O [STREPTOMYCIN]" class=NO
